Data provenance is paper PMC10266688.

assay: Single dose pharmacokinetics in CD1 mice (IV, IP, PO), plasma LC-MS/MS
Type: in vivo, mouse
condition_description: CD-1, mouse, in vivo, ip, 20 mg/kg, Plasma concentration
assay_metric: concentration at 240 min

input_smiles	meas_value
N#Cc1ccc(/C=C2/C(=O)/C(=C/c3ccc(C#N)cc3)C23CCNCC3)cc1	1540 ng/mL

###

assay: Single dose pharmacokinetics in CD1 mice (IV, IP, PO), plasma LC-MS/MS
Type: in vivo, mouse
condition_description: male, CD-1, mouse, in vivo, po, 50 mg/kg, Plasma concentration, Mean

input_smiles	concentration at 240 min, ng/mL
N#Cc1ccc(/C=C2/C(=O)/C(=C/c3ccc(C#N)cc3)C23CCNCC3)cc1	798
